biological target: Gamma-secretase; test: Inhibition of gamma-secretase mediated amyloid beta-40 production in HEK293 cells by whole cell-based assay; design: species or system Homo sapiens
pIC50: −log10 of the molar value.
pIC50 for assorted compounds

Compound	Tested On	pIC50
O=C(OC1(C2CCCC(c3cccc(F)c3)N2S(=O)(=O)c2ccc(Cl)cc2)CC1)N1CCN(CCO)CC1 (racemic)	Gamma-secretase	8.15
C[C@H]1CN(CCO)CCN1C(=O)OC1(C2CCCC(c3cccc(F)c3)N2S(=O)(=O)c2ccc(Cl)cc2)CC1 (mixture of isomers)	Gamma-secretase	7.54
C[C@H]1CNCCN1C(=O)OC1(C2CCCC(c3cc(F)cc(F)c3)N2S(=O)(=O)c2ccc(Cl)cc2)CC1 (mixture of isomers)	Gamma-secretase	6.81
O=C(OC1(C2CCCC(c3cccc(F)c3)N2S(=O)(=O)c2ccc(Cl)cc2)CC1)N1C2CCC1CC(N1CC[C@@H](O)C1)C2 (mixture of isomers)	Gamma-secretase	7.70
O=C(OC1(C2CCCC(c3cc(F)cc(F)c3)N2S(=O)(=O)c2cc(F)cc(F)c2)CC1)N1CCN(CCO)CC1 (racemic)	Gamma-secretase	7.61
O=C(OC1(C2CCCC(c3cccc(F)c3)N2S(=O)(=O)c2ccc(Cl)cc2)CC1)N1C2CCC1CC(N1CCCCC1)C2 (racemic)	Gamma-secretase	8.01
O=C(OC1(C2CCCC(c3cc(F)cc(F)c3)N2S(=O)(=O)c2ccc(Cl)cc2)CC1)N1CCC(N2CCCCC2)CC1 (racemic)	Gamma-secretase	8.24
CC(C)N1CCN(C(=O)OC2(C3CCCC(c4cc(F)cc(F)c4)N3S(=O)(=O)c3ccc(Cl)cc3)CC2)CC1 (racemic)	Gamma-secretase	7.77
CCCC1(O)CCN(C(=O)OC2(C3CCCC(c4cccc(F)c4)N3S(=O)(=O)c3ccc(Cl)cc3)CC2)CC1 (racemic)	Gamma-secretase	7.97
C[C@H]1CN(C(C)(CO)CO)CCN1C(=O)OC1(C2CCCC(c3cccc(F)c3)N2S(=O)(=O)c2ccc(Cl)cc2)CC1 (mixture of isomers)	Gamma-secretase	8.29
Cl.O=C(OC1(C2CCCC(c3cccc(F)c3)N2S(=O)(=O)c2ccc(Cl)cc2)CC1)N1CCC(N2CCCCC2)CC1 (racemic; form 2)	Gamma-secretase	8.30
O=C(OC1(C2CCCC(c3cccc(F)c3)N2S(=O)(=O)c2ccc(Cl)cc2)CC1)N1CCC(N2CCC(F)(F)CC2)CC1 (racemic)	Gamma-secretase	8.26
